The reported numbers originate from patent EP1104674A1.

Target: humanen mpl-Rezeptor (Homo sapiens)
Sequence (P40238 26-635): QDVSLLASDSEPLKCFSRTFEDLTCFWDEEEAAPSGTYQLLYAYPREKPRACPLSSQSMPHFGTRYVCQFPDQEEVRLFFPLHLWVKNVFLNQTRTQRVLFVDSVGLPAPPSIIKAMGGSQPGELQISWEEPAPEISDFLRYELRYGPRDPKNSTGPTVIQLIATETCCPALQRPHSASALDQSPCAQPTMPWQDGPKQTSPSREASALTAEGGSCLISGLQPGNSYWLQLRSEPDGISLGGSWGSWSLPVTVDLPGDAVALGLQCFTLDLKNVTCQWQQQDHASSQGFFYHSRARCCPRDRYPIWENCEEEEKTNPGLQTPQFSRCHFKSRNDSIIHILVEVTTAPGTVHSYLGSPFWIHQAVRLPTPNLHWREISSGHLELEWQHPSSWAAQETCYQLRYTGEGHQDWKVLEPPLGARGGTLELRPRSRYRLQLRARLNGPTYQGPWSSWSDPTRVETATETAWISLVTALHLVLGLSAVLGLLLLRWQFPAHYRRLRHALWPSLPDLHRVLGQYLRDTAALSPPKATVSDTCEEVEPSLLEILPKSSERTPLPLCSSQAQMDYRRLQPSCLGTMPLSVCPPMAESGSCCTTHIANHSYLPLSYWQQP
Test: TPO-dependent cell proliferation test with BaF3 cells transfected with the human mpl receptor (BaF3/mpl), WST readout
Settings: BaF3-mpl Rezeptor Proliferationstest; 48 bis 72 h; half-maximal stimulation after background subtraction
REPORTED PROPERTY: EC50 (nM)

Worked set:
Cc1ccc(NC(=O)c2cc3ccccc3c(N=Nc3cc(S(=O)(=O)O)ccc3O)c2O)c(C)c1 = 4480
O=S(=O)(O)c1cccc2c(O)c(N=Nc3ccc(C(F)(F)F)cc3O)ccc12 = 72.8
O=[N+]([O-])c1ccc2c(N=Nc3c(O)ccc4ccccc34)c(O)cc(S(=O)(=O)O)c2c1 = 1590

[1] Cc1ccc(O)c(N=Nc2c(O)cc(S(=O)(=O)O)c3ccccc23)c1
[2] O=[N+]([O-])c1ccc2c(N=Nc3ccc4ccccc4c3O)c(O)cc(S(=O)(=O)O)c2c1
-- ask In the pair 1 and 2 , the larger recorded EC50 belongs to which? Give the label under which the chosen entry appears.
-- reply 1
(1: 5580 nM, 2: 1370 nM)
